# mean fluorescence values detected for the control wells values compiled below
- testSummary: Fluorescence of control wells containing enzyme substrate in LB broth without spores
- Format: physicochemical
- assayContext: pH 7 LB broth, substrate 0.3 mg/mL, 60° C., +10 minutes
attributeMeasured: mean fluorescence values detected for the control wells (RFU)

1. Cc1cc(=O)oc2cc(O[C@H]3O[C@H](CO)[C@@H](O)[C@H](O)[C@H]3O)ccc12; 636
2. Cc1cc(=O)oc2cc(O[C@H]3O[C@H](CO)[C@@H](O)[C@H](O)[C@H]3O)cc(F)c12; 646
3. Cc1cc(=O)oc2cc(O[C@H]3O[C@H](CO)[C@@H](O)[C@H](O)[C@H]3O)c(F)cc12; 895

* * *

- testSummary: Measurement of enzyme substrate degradation (100° C. for 15 minutes) by fluorescence
- Format: physicochemical
- assayContext: pH 6 LB broth, no spores, read at 60° C., +5 min
# MEASURED FLUORESCENCE, RFU +5 min values compiled below
attributeMeasured: MEASURED FLUORESCENCE, RFU +5 min (RFU)

1) Cc1cc(=O)oc2cc(O[C@H]3O[C@H](CO)[C@@H](O)[C@H](O)[C@H]3O)cc(F)c12 [Example 2]; 852
2) Cc1cc(=O)oc2cc(O[C@H]3O[C@H](CO)[C@@H](O)[C@H](O)[C@H]3O)ccc12 [MUG]; 909
3) Cc1cc(=O)oc2cc(O[C@H]3O[C@H](CO)[C@@H](O)[C@H](O)[C@H]3O)c(F)cc12 [Example 1]; 1096

* * *

- testSummary: Measurement of enzyme substrate degradation (100° C. for 15 minutes) by fluorescence
- Assay type: physicochemical
- assayContext: pH 8 LB broth, no spores, read at 60° C., +30 min
attributeMeasured: MEASURED FLUORESCENCE, RFU +30 min (RFU)

1) Cc1cc(=O)oc2cc(O[C@H]3O[C@H](CO)[C@@H](O)[C@H](O)[C@H]3O)cc(F)c12; 579
2) Cc1cc(=O)oc2cc(O[C@H]3O[C@H](CO)[C@@H](O)[C@H](O)[C@H]3O)c(F)cc12; 1026
3) Cc1cc(=O)oc2c(F)c(O[C@H]3O[C@H](CO)[C@@H](O)[C@H](O)[C@H]3O)c(F)cc12; 14331
4) Cc1cc(=O)oc2cc(O[C@H]3O[C@H](CO)[C@@H](O)[C@H](O)[C@H]3O)ccc12; 567

* * *

- testSummary: Fluorescence of control wells containing enzyme substrate in LB broth without spores
- Format: physicochemical
- assayContext: pH 7 LB broth, substrate 0.3 mg/mL, 60° C., 10 seconds
# mean fluorescence values detected for the control wells values compiled below
attributeMeasured: mean fluorescence values detected for the control wells (RFU)

1. Cc1cc(=O)oc2cc(O[C@H]3O[C@H](CO)[C@@H](O)[C@H](O)[C@H]3O)cc(F)c12; 720
2. Cc1cc(=O)oc2cc(O[C@H]3O[C@H](CO)[C@@H](O)[C@H](O)[C@H]3O)c(F)cc12; 989
3. Cc1cc(=O)oc2cc(O[C@H]3O[C@H](CO)[C@@H](O)[C@H](O)[C@H]3O)ccc12; 722

* * *

# MEASURED FLUORESCENCE, RFU 10 sec values compiled below
- System: Geobacillus stearothermophilus spores (ATCC 7953)
- testSummary: Fluorescence measurements using enzyme substrates and Geobacillus stearothermophilus spores in LB broth
- Format: cell-based
- assayContext: pH 9 LB broth, substrate 0.3 mg/mL, 5×10^6 spores, 60° C., 10 sec
attributeMeasured: MEASURED FLUORESCENCE, RFU 10 sec (RFU)

1) Cc1cc(=O)oc2c(F)c(O[C@H]3O[C@H](CO)[C@@H](O)[C@H](O)[C@H]3O)c(F)cc12 [Comparative Example A]; 4119
2) Cc1cc(=O)oc2cc(O[C@H]3O[C@H](CO)[C@@H](O)[C@H](O)[C@H]3O)c(F)cc12 [Example 1]; 2823
3) Cc1cc(=O)oc2cc(O[C@H]3O[C@H](CO)[C@@H](O)[C@H](O)[C@H]3O)ccc12 [MUG]; 1193
4) Cc1cc(=O)oc2cc(O[C@H]3O[C@H](CO)[C@@H](O)[C@H](O)[C@H]3O)cc(F)c12 [Example 2]; 1116
